Reported Emax is given for each of the following compounds.
Tested System: vasopressin-2 receptor (AVP2R) (Homo sapiens, UniProt P30518)
Construct: expressed in transfected cells; host or cells: CHO-K1 (PAM format); HEK-293 (agonist format)
Sequence (P30518 whole entry): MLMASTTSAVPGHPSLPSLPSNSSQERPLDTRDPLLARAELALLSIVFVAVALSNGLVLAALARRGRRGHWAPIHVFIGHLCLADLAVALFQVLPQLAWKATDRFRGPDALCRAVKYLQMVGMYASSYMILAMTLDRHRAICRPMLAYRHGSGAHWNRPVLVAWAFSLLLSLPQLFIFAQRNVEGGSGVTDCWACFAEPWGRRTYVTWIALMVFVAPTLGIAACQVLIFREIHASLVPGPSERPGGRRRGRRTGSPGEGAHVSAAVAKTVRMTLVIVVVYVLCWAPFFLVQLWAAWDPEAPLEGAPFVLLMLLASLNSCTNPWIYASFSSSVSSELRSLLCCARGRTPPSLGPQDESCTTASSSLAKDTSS
Assay Summary: AVP2R cAMP HTRF accumulation assay
Format: cell-based
Condition Summary: CHO-K1 AVP2R cells, PAM format with vasopressin; original hits: agonist and PAM data combined; average ± SD
# value in %; strip the unit string

// below: answered compounds
- Smiles Str: "c1ccc(-c2nc3sc4c(NCCN5CCOCC5)ncnc4c3c3c2CCCC3)cc1"
  Metric: "Emax"
  Data Value: 16
- Smiles Str: "NNc1ncnc2c1sc1nc(N3CCOCC3)c3c(c12)CCCC3"
  Metric: "Emax"
  Data Value: 0
- Smiles Str: "CN(C)CCCNc1nnnc2c1sc1nc(N3CCOCC3)c3c(c12)CCCC3"
  Metric: "Emax"
  Data Value: 26
- Smiles Str: "COc1ccc(NC(=O)CSc2ncnc3c2sc2nc(N4CCOCC4)c4c(c23)CCCC4)cc1"
  Metric: "Emax"
  Data Value: 96
- Smiles Str: "CCCc1nc2oc3c(N4CCNCC4)ncnc3c2c2c1CCCC2"
  Metric: "Emax"
  Data Value: 66

Please list Emax recorded for the compound CCCCc1nc2sc3c(NCCCO)ncnc3c2c2c1CCC2 32

Please list Emax recorded for the compound CN(C)CCNc1ncnc2c1sc1nc(N3CCCCC3)c3c(c12)CCCC3 31

Please list Emax recorded for the compound CCCCNc1ncnc2c1sc1nc(N3CCOCC3)c3c(c12)CCCC3 0

Please list Emax recorded for the compound CCCc1nc2oc3c(NN)ncnc3c2c2c1CCCC2 61

Please list Emax recorded for the compound CCN(CC)CCNc1ncnc2c1sc1nc(-c3ccccc3)c3c(c12)CCCC3 44
